B1: Far upstream element-binding protein 2, residues 142 to 214; numbered along this chain, Q92945 (parent)
chain: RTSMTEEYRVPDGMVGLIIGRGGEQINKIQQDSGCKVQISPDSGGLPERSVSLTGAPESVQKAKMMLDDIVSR

Variants of: B1
Test: abundance fitness (aPCA) (normalised: wild type 0, dead -1); higher = more abundant; growth selection in yeast, the domain comes from the species named
Settings: Homo sapiens
So I've got a bunch of variants here, and I need their abundance fitness values.
Keep it simple and answer with nothing but the number.

The variant identified as L67P registered its abundance fitness at -0.652

The variant identified as P41Y registered its abundance fitness at -0.099

The variant identified as G55M registered its abundance fitness at -1.18

The variant identified as S72I registered its abundance fitness at -0.086

The variant identified as L53T registered its abundance fitness at -0.648

The variant identified as V60E registered its abundance fitness at -0.773

The variant identified as L53C registered its abundance fitness at -0.379

The variant identified as S33E registered its abundance fitness at -0.854

The variant identified as K64M registered its abundance fitness at -0.457

The variant identified as D68R registered its abundance fitness at -0.126

The variant identified as D42S registered its abundance fitness at -0.038

The variant identified as P41N registered its abundance fitness at -0.141

The variant identified as S40T registered its abundance fitness at -0.059

The variant identified as I29N registered its abundance fitness at -0.869

The variant identified as V37M registered its abundance fitness at -0.14

The variant identified as D69N registered its abundance fitness at -0.094

The variant identified as A56W registered its abundance fitness at -0.281

The variant identified as S59H registered its abundance fitness at -0.081

The variant identified as E58S registered its abundance fitness at -0.102

The variant identified as P57S registered its abundance fitness at -0.245

The variant identified as I39V registered its abundance fitness at -0.045
